A collection of molecules and their measured Population Apoptotic (%)
Tested on: Fibroblast
assay-info: Multiplex assay against human fibroblast
Assay type: toxicity, cell-based
protocol-conditions: 12 h, 1 µM, compound concentration 1 uM, replicate 1
Give the value; after it, write the unit.

[[record]]
smiles_notation = "CNc1oc(-c2cccc3ccccc23)nc1C#N"
experimental_readout = "Population Apoptotic (%)"
measurement = "75%"


Q: Field: Population Apoptotic (%) (Fibroblast). Entry: "Nc1nc2c(c(N3CCNCC3)n1)CCC1=C2[C@@H]2CCCC[C@@H]2O1"
A: 67%

Q: Field: Population Apoptotic (%) (Fibroblast). Entry: "CCCn1c(=O)c2[nH]c(C34CC5CC(CC3C5)C4)nc2n(CCC)c1=O"
A: 67%

Q: Field: Population Apoptotic (%) (Fibroblast). Entry: "Cl.Cl.Nc1ncnc2c1c(-c1cccc(OCc3ccccc3)c1)cn2[C@H]1C[C@@H](CN2CCC2)C1"
A: 70%

Q: Field: Population Apoptotic (%) (Fibroblast). Entry: "CCOc1cc(N2CCC(O)CC2)ccc1Nc1ncc2c(n1)N(C1CCCC1)CCC(=O)N2C"
A: 64%

Q: Field: Population Apoptotic (%) (Fibroblast). Entry: "CCOc1cc2ncc(C#N)c(Nc3ccc(OCc4cccc(F)c4)c(Cl)c3)c2cc1NC(=O)/C=C/CN(C)C"
A: 72%

Q: Field: Population Apoptotic (%) (Fibroblast). Entry: "Cl.Cl.NC1(c2ccc(-c3nc4ccn5c(=O)[nH]nc5c4cc3-c3ccccc3)cc2)CCC1"
A: 71%

Q: Field: Population Apoptotic (%) (Fibroblast). Entry: "Nc1ccc(C(=O)Nc2cccc(-c3nc(N4CCOCC4)c4oc5ncccc5c4n3)c2)cn1"
A: 63%

Q: Field: Population Apoptotic (%) (Fibroblast). Entry: "CC(=O)c1cc(-c2cc(C(=O)NC3CC3)ccc2C)c2ncccn12"
A: 68%

Q: Field: Population Apoptotic (%) (Fibroblast). Entry: "CNC(=O)c1cc(Oc2ccc(NC(=O)Nc3cc(C(C)(C)C)nn3-c3ccc4ncccc4c3)c(F)c2)ccn1"
A: 90%

Q: Field: Population Apoptotic (%) (Fibroblast). Entry: "c1ccc2oc(-c3csc(C4CCN(Cc5nc6ncccc6[nH]5)CC4)n3)cc2c1"
A: 73%

Q: Field: Population Apoptotic (%) (Fibroblast). Entry: "CN(C)CCOc1ccc(-c2nc(-c3ccncc3)c(-c3ccc4c(c3)CC/C4=N\O)[nH]2)cc1"
A: 86%

Q: Field: Population Apoptotic (%) (Fibroblast). Entry: "CC(C)N1CCC(C)(C)c2cc(C#Cc3ccc(C(=O)O)cc3)ccc21"
A: 89%
